Tested on: WiDr colorectal cancer cell line
Test: In vitro cytotoxicity analysis (XTT), 72-hour exposure
Type: cell-based
Settings: Homo sapiens, read-out: Cytotoxicity IC50
Experimental: Briefly, cell lines were seeded at various cell densities depending on the cell type.
Would you mind telling me the reported IC50 of each entry?

Input: Which value of IC50 has been reported for "CC(/C=C/[C@@H]1C[C@]2(CO2)CC(C)(C)O1)=C\C[C@H]1CC[C@@H](NC(=O)/C=C\[C@H](C)OC(=O)N2CCN(CCO)CC2)CC1" in the records?
Output: > 1250 nM

Input: Follow-up item: "COc1cccc(N2CCN(C(=O)O[C@@H](C)/C=C\C(=O)N[C@H]3CC[C@@H](C/C=C(C)/C=C/[C@@H]4C[C@]5(CO5)CC(C)(C)O4)CC3)CC2)c1"
Output: > 1250 nM

Input: Follow-up item: "CC(/C=C/[C@@H]1C[C@](O)(CCl)CC(C)(C)O1)=C\C[C@H]1CC[C@@H](NC(=O)/C=C\[C@H](C)OC(=O)N2CCN(C3CCCCCC3)CC2)CC1"
Output: > 1250 nM

Input: Follow-up item: "CC(/C=C/[C@@H]1C[C@]2(CO2)CC(C)(C)O1)=C\C[C@H]1CC[C@@H](NC(=O)/C=C\[C@H](C)OC(=O)N2CCN(C)CC2)CC1"
Output: > 500 nM

----------
Assay: Stability study in buffer solution by HPLC
Format: physicochemical
Conditions: 100 μM in PBS buffer and DMSO (2:1); read-out: calculated half life (converted)
valueKind: half-life at 100 μM (days)
Express the result in days but write the number alone.

Input: Which value of half-life at 100 μM has been reported for "CC(/C=C/[C@@H]1C[C@]2(CO2)CC(C)(C)O1)=C\C[C@H]1CC[C@@H](NC(=O)/C=C\[C@H](C)OC(=O)C(C)C)CC1" in the records?
Output: 50.6

----------
Assay: Stability study in buffer solution by HPLC
Type: physicochemical
Conditions: PBS buffer; 100 μM in PBS, pH 7.4; read-out: calculated half life (converted)
Method: Stability studies were performed for exemplary compounds 48 and 15. A 100 μM solution of compound 48 was prepared in buffer (PBS, pH 7.4) and warfarin was used as an internal standard. A sample was injected into a HPLC periodically starting at day 0 and ending at about 6 weeks to find out the stability of compound 48 in PBS solution. […] After 6 weeks, 58% of compound 48 remained in the buffer solution.
valueKind: half-life at 100 μM (days)
Express the result in days but write the number alone.

Input: Which value of half-life at 100 μM has been reported for CC(/C=C/[C@@H]1C[C@]2(CO2)CC(C)(C)O1)=C\C[C@H]1OC[C@@H](NC(=O)/C=C\[C@H](C)OC(=O)C(C)C)CO1 [Compound 48] in the records?
Output: 50.4

----------
Would you mind telling me the reported pIC50 of each entry?
System: JeKo-1 mantle cell lymphoma cell line
Assay: In vitro cytotoxicity analysis (XTT), 72-hour exposure
Type: cell-based
Conditions: Homo sapiens, JEKo1 cells
# reply with the number alone; pIC50 is -log10 of concentration in mol/L

Input: Which value of pIC50 has been reported for CC(/C=C/[C@@H]1C[C@]2(CO2)CC(C)(C)O1)=C\C[C@H]1CC[C@@H](NC(=O)/C=C\[C@H](C)OC(=O)c2ccco2)CC1 [Compound 18] in the records?
Output: 6.85

Input: Follow-up item: CC(/C=C/[C@@H]1C[C@]2(CO2)CC(C)(C)O1)=C\C[C@H]1CC[C@@H](NC(=O)/C=C\[C@H](C)OC(=O)C(C)C)CC1 [Compound 15]
Output: 7.40

Input: Follow-up item: CC(/C=C/[C@@H]1C[C@]2(CO2)CC(C)(C)O1)=C\C[C@H]1CC[C@@H](NC(=O)/C=C\[C@H](C)OC(=O)c2ccccc2)CC1 [Compound 20]
Output: 6.39

Input: Follow-up item: CC(/C=C/[C@@H]1C[C@]2(CO2)CC(C)(C)O1)=C\C[C@H]1OC[C@@H](NC(=O)/C=C\[C@H](C)OC(=O)C(C)(C)C)CO1 [Compound 49]
Output: 6.47

Input: Follow-up item: CC(/C=C/[C@@H]1C[C@]2(CO2)CC(C)(C)O1)=C\C[C@H]1CC[C@@H](NC(=O)/C=C\[C@H](C)OC(=O)c2cccn2C)CC1 [Compound 19]
Output: 6.41

Input: Follow-up item: CC(/C=C/[C@@H]1C[C@]2(CO2)CC(C)(C)O1)=C\C[C@H]1CC[C@@H](NC(=O)/C=C\[C@H](C)OC(=O)C2CCOCC2)CC1 [Compound 17]
Output: 6.36

Input: Follow-up item: CC(/C=C/[C@@H]1C[C@]2(CO2)CC(C)(C)O1)=C\C[C@H]1OC[C@@H](NC(=O)/C=C\[C@H](C)OC(=O)C(C)C)CO1 [Compound 48]
Output: 6.77

Input: Follow-up item: CC(/C=C/[C@@H]1C[C@]2(CO2)CC(C)(C)O1)=C\C[C@H]1CC[C@@H](NC(=O)/C=C\[C@H](C)OC(=O)c2cccnc2)CC1 [Compound 21]
Output: 6.80

Input: Follow-up item: CC(/C=C/[C@@H]1C[C@]2(CO2)CC(C)(C)O1)=C\C[C@H]1CC[C@@H](NC(=O)/C=C\[C@H](C)OC(=O)C(C)(C)C)CC1 [Compound 23]
Output: 7.52

----------
System: JeKo-1 mantle cell lymphoma cell line
Assay: In vitro cytotoxicity analysis (XTT), 72-hour exposure
Type: cell-based
Conditions: Homo sapiens, JEKo1 cells
Would you mind telling me the reported IC50 of each entry?

Input: Which value of IC50 has been reported for "CC(/C=C/[C@H]1OCC[C@@]2(CO2)[C@@H]1O)=C\C[C@H]1CC[C@@H](NC(=O)/C=C\[C@H](C)OC(=O)C(C)C)CC1" in the records?
Output: > 1 µM

Input: Follow-up item: "CC(/C=C/[C@@H]1C[C@]2(CO2)CC(C)(C)O1)=C\C[C@H]1CC[C@@H](NC(=O)/C=C\[C@H](C)OC(=O)N2CCN(CCO)CC2)CC1"
Output: > 0.5 µM

Input: Follow-up item: "COc1cccc(N2CCN(C(=O)O[C@@H](C)/C=C\C(=O)N[C@H]3CC[C@@H](C/C=C(C)/C=C/[C@@H]4C[C@]5(CO5)CC(C)(C)O4)CC3)CC2)c1"
Output: > 0.5 µM

Input: Follow-up item: "CC(=O)O[C@@H](C)CCC(=O)N[C@H]1CO[C@@H](C/C=C(C)/C=C/[C@@H]2C[C@]3(CO3)CC(C)(C)O2)OC1"
Output: > 1 µM

Input: Follow-up item: "CC(/C=C/[C@@H]1C[C@]2(CO2)CC(C)(C)O1)=C\C[C@H]1CC[C@@H](NC(=O)/C=C\[C@H](C)OC(=O)C2CCN(C)CC2)CC1"
Output: > 1 µM

Input: Follow-up item: "CC(/C=C/[C@@H]1C[C@]2(CO2)CC(C)(C)O1)=C\C[C@H]1CC[C@@H](NC(=O)/C=C\[C@H](C)OC(=O)N2CCN(C)CC2)CC1"
Output: > 0.5 µM

Input: Follow-up item: "CC(/C=C/[C@@H]1C[C@]2(CO2)CC(C)(C)O1)=C\C[C@H]1CC[C@@H](NC(=O)/C=C\[C@H](C)OC(=O)C2CCN(c3ccnc(C(F)(F)F)n3)CC2)CC1"
Output: > 1 µM
